Target: DRB1*0301 (DR0301) (Homo sapiens, UniProt P01903+P01911, A100K/A102G/A103R/A169T/F55Y/I96L/K41T/L162R/M171V/P40S/Q125H/Q178H/Q39Y/R42S/S66N/T106N/T262R/W38E/Y61H)
Test: HLA-DR peptide binding competition assay, DR0301
Settings: concentration displacing 50% reference peptide, ± standard error of the mean, NB = no binding
pIC50: −log10 of the molar value. No end group written: not given here.
endpoint.label: pIC50

Prompt line: Query (sequence): SYATNMFATWSP [FVIII2194-2205, F2196A] ; field requested: pIC50
Response line: < 4.30
